Measured composite z-score, listed per entry.
# Test system: Chordin-like protein 2 (CHRDL2)
# test method notes: CHRDL2 small-molecule binders, primary screen, biochemical, small-molecule microarray, 635 nm fluorescence (AID 1126);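 also: printed compound slides probed with Chrdl2 protein at 4 µg/mL for 1 h at 4 C; score merges 667 nm emission intensity with signal to noise over three replicate slides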
# experimental parameters: small-molecule microarray binding, fluorescence 635 nm; higher = more signal
// no unit, no text: just the number

Here is how some molecules turned out for composite z-score.
CC=CC(O)C1C=CC2C(=O)N(C)C(=O)C2N1NC(=O)OC(C)(C)C (stereo not given) : 0.204
CCCCN1CC=CC23O[C@@H]4C=CCOC(=O)[C@@H]4[C@H]2C(=O)N(CCO)[C@@H]3C1=O (stereo not given in full) : -1.68

Query :: I'd like to know its composite z-score. The molecule in question is "COCC(=C=CC[C@@H](O)c1cccc(OCCO)c1)C[C@@H](O)COCc1ccccc1"
Result :: -0.69

Query :: // same read-out, input: "COC(=O)[C@@]1(Cc2ccc(OC)cc2)[C@H]2c3cc(C(=O)N(C)C)n(Cc4ccsc4Br)c3C[C@H]2CN1C(=O)c1ccccc1"
Result :: -0.0018

Query :: Another molecule: "O=C1c2ccccc2[C@](Cc2ccccc2I)(C(=O)O)[C@H](c2ccc(CO)cc2)N1Cc1ccccc1"
Result :: -0.813

* * *

# test method notes: binders of probe aFST on microarray, primary screen, stem cell growth factor project, biochemical, small-molecule microarray, fluorescence 635/667 (AID 1086);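 also: score merges 667 nm fluorescence with signal-to-noise of each printed compound spot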
# experimental parameters: higher = more signal
Recorded composite z-score for the following compounds
No unit in the answer, please; the number alone is enough.

Solved entries:
C=CCC(OC(C)=O)[C@@H]1[C@@H](N(Cc2cc3ccccc3o2)C(=O)Cc2ccc(OC)cc2)c2cc(OCCCO)ccc2N1C(=O)Cc1ccc2ccccc2c1 (stereo partly drawn) : 0.0598
COCCOC(=O)N1C(=O)[C@@]2(c3cc(C#CC4=CCCCC4)ccc31)[C@H](C(=O)N1CCc3cc(OC)c(OC)cc3C1)[C@H]1C(=O)O[C@H](c3ccccc3)[C@H](c3ccccc3)N1[C@@H]2c1ccc(O)cc1 : 0.153
CO[C@H]1O[C@H](CO)[C@@H](OC(=O)Nc2ccc(C(F)(F)F)cc2)[C@H](OC(=O)Nc2ccccc2-c2ccccc2)[C@@H]1OC(=O)Nc1ccccc1-c1ccccc1 : 1.32
CCCCN1CC=CC23O[C@@H]4C=CCOC(=O)[C@@H]4[C@H]2C(=O)N(C(CO)C(C)C)[C@@H]3C1=O (stereo partly drawn) : -0.288
CN1C(=O)[C@]2(CCS(=O)(=O)c3ccccc3)N=C(c3ccc(OCCCO)cc3)O[C@@H]2c2ccccc21 : 0.135

Query :: Fill blank: measured composite z-score of the compound COc1ccc(NN2C(C(O)c3ccc(OC)cc3)C=CC3C(=O)N(C4CCCCC4)C(=O)C32)cc1 (stereo not drawn) is ____.
Result :: 0.775

Query :: Cool, now O=C1NC(=O)C2C1C=CC(C(O)c1cccc(O)c1)N2Nc1ccc(Cl)cc1Cl (stereo not drawn)
Result :: 0.259

Query :: Now the same for "CN(C)CCCCNC(=O)[C@H]1C[C@H]2C(=O)NCC(=O)N2[C@H]1c1cccc(OCCO)c1"
Result :: -0.324

Query :: Now the same for "CCOC(=O)C[C@H]1[C@H](OC(=O)c2ccc(-c3ccccc3)cc2)[C@@H](NC(=O)c2ccc3ccccc3c2)c2cc(OCCCO)ccc2N1C(=O)c1ccccc1"
Result :: 0.412

Query :: Entry "COC(=O)[C@@]1(CCS(=O)(=O)c2ccccc2)N=C(c2ccc(OCCCO)cc2)O[C@H]1c1ccccc1N=[N+]=[N-]" please
Result :: 0.252

Query :: Then what about the compound "C=C(/C(=C/C[C@@H](OC(C)=O)c1ccccc1OCCO)c1cc(C(=O)OC)ccc1OC)C(C)C" ?
Result :: -0.145

Query :: And "[N-]=[N+]=NCc1ccccc1[C@@H]1OC(c2ccc(OCCCO)cc2)=N[C@]1(Cc1ccccc1)C(=O)NCc1ccccc1" ?
Result :: 0.846

Query :: Thanks! And N#Cc1ccc(C(O)C2C=CC3C(=O)N(c4ccccc4)C(=O)C3N2Nc2ccc([N+](=O)[O-])cc2)cc1 (stereo not drawn) ?
Result :: 1.02

* * *

# test method notes: basal 3T3-L1 adipocyte mitochondrial potential changes, profiling panel, cell-based, JC-1 fluorescence, 3T3-L1 adipocytes, 24 h, 100 nL compound (AID 1168); also: test concentration not given here
# experimental parameters: JC-1 mitochondrial fluorescence, higher = more signal, called active from +8 up or from −8 down
# Lookup of reported z-score keyed by entry
Please reply with the value in numeric form only.

[N-]=[N+]=NCc1ccccc1C[C@@]1(C(=O)O)N=C(c2ccc(OCCCO)cc2)O[C@@H]1c1ccccc1CN=[N+]=[N-] : -0.186
COc1ccc(C#Cc2ccc3c(c2)[C@]2(C(=O)N3)[C@H](C(=O)Nc3nc4ccccc4s3)[C@H]3C(=O)O[C@H](c4ccccc4)[C@H](c4ccccc4)N3[C@@H]2c2ccc(OCCO)cc2)cc1 : -1.95
NCCCC[C@@H]1NC(=O)[C@H]2C[C@@H](C(=O)NCc3ccc(F)cc3)[C@@H](c3cccc(OCCO)c3)N2C1=O : 0.13

Query :: What value of z-score has been reported for the following molecule? "CCCCC(=C=CC[C@@H](O)c1ccc(OCCO)cc1)C[C@@H](O)c1ccccn1"
Result :: -1.58

Query :: Same question for "CN(C)CCCNC(=O)[C@@H]1c2ccccc2C(=O)N(C2Cc3ccccc3C2)[C@H]1c1ccc(CO)cc1" please.
Result :: 0.571

Query :: Then this molecule: "COCCOC(=O)N1C(=O)[C@@]2(c3cc(C#Cc4ccc(OC)cc4)ccc31)[C@H](c1ccc(OCCO)cc1)N1[C@H](c3ccccc3)[C@H](c3ccccc3)OC(=O)[C@H]1[C@@H]2C(=O)N1CCCCCCC1"
Result :: -2.31

* * *

# Test system: Plasmodium falciparum Sir2 (PF13_0152, Sir2A)
# test method notes: pfSir2 binders on small-molecule microarrays, primary screen, biochemical, small-molecule microarray, 635 nm fluorescence (AID 1098);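 also: score merges spot fluorescence intensity with its signal-to-noise ratio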
# experimental parameters: small-molecule microarray binding, fluorescence 635 nm; higher = more signal
Note to self: values exactly at 0.9 are true (1). So composite z-score at or above 0.9 is true (1), below is false (0).

C=CCOC(=O)[C@@H]1[C@H]2C(=O)O[C@H](c3ccccc3)[C@H](c3ccccc3)N2[C@H](c2ccc(OCCOC(=O)[C@H]3C[C@H]4C(=O)NCC(=O)N4[C@H]3c3ccc(O)cc3)cc2)[C@@]12C(=O)Nc1ccc(I)cc12 : true (1)
CCOC(=O)C[C@H]1[C@H](OC(=O)c2ccc(C(=O)c3ccccc3)cc2)[C@@H](NC(=O)c2ccc3ccccc3c2)c2cc(OCCCO)ccc2N1C(=O)c1ccc2ccccc2n1 : false (0)
CCN(CC)c1ccc(N2CC=CC34O[C@@H]5C=CCOC(=O)[C@@H]5[C@H]3C(=O)N(CCCO)[C@@H]4C2=O)cc1 (stereo not given in full) : false (0)

# input for lookup
Query :: Dear colleague, could you confirm whether "COCCOC(=O)N1C(=O)[C@@]2(c3cc(C#Cc4ccc(OC)cc4)ccc31)[C@H](C(=O)N1CCCCCCC1)[C@H]1C(=O)O[C@H](c3ccccc3)[C@H](c3ccccc3)N1[C@@H]2c1ccccc1OCCO" has composite z-score at or above 0.9?
Result :: true (1)

* * *

Catalogue of compounds with associated composite z-score
# System: Lefty1
# test method notes: Lefty1 binders on small-molecule microarrays, primary screen, biochemical, small-molecule microarray, 635/667 nm fluorescence (AID 1139)
# experimental parameters: small-molecule microarray binding, fluorescence 635/667; higher = more signal
Respond using a number only.

Use the examples below as a reference point.
CN(C)CCCC[C@@H]1NC(=O)[C@@H]2C[C@H](C(=O)NCc3ccc(F)cc3)[C@H](c3ccc(O)cc3)N2C1=O : 0.748
C=CCC(OC(C)=O)[C@@H]1[C@@H](N(Cc2cc3ccccc3o2)C(=O)c2ccc(-c3ccccc3)cc2)c2cc(OCCCO)ccc2N1C(=O)c1ccc2ccccc2n1 (stereo partly drawn) : -0.194

Okay, now this compound:
Query :: Form field - read-out: composite z-score; system: Lefty1; submitted item: "CCCC[C@H]1OB(O)C[C@H]2C1=C(COC)C[C@H]1C(=O)C=CC(=O)[C@H]12"
Result :: 0.96

* * *

# measured on: Carbonic anhydrase 2 (Homo sapiens)
# test method notes: CAII small-molecule binders, profiling panel, biochemical, small-molecule microarray, Alexa647-labelled CAII (AID 1122)
# experimental parameters: CAII-A647 binding fluorescence, higher = more signal
measure name: composite z-score
Lab note: write the figure by itself, no unit.

CC(C)C[C@H]1NC(=O)[C@@]23C(=O)N[C@@H](Cc4ccccc4)C2[C@H](C)[C@@]2(C)O[C@H]2C3/C=C/C/C=C\CNC(=O)[C@@H]2CCCN2C1=O (stereo not given in full) : 0.725
CN(C)CCCC[C@@H]1NC(=O)[C@H]2C[C@@H](C(=O)O)[C@@H](c3cccc(OCCO)c3)N2C1=O : 0.816
COc1ccc(CCNC(=O)[C@@H]2c3ccccc3C(=O)N(CC34CC5CC(CC(C5)C3)C4)[C@H]2c2ccc(CO)cc2)cc1 : 0.539
COCCOC(=O)N1C(=O)[C@@]2(c3cc(C#CC4=CCCCC4)ccc31)[C@H](c1ccccc1OCCO)N1[C@H](c3ccccc3)[C@H](c3ccccc3)OC(=O)[C@H]1[C@@H]2C(N)=O : 0.265

Query :: Query: composite z-score; subject: "CCOC(=O)C[C@H]1[C@H](OC(=O)c2ccc(-c3ccccc3)cc2)[C@@H](NC(=O)c2ccc3ccccc3c2)c2cc(OCCCO)ccc2N1C(=O)c1ccccc1"
Result :: 0.119
